- TEST TARGET: Ubiquitin-activating enzyme e1, putative (Leishmania donovani (strain BPK282A1))
- ASSAY INFO: Leishmania donovani Ubiquitin Activating Enzyme (LdE1)
- Type: functional
- Design: scale not given: direction of the effect not stated beside the values
- ASSAY CONDITIONS: 30 µM
Measured potencies and affinities stand elsewhere.
Give measured Percent Effect for each item. Keep answers brief.
One number for each entry, in %.

[
  {
    "COMPOUND": "CCN1CCO[C@]2(CCC[C@H]2COCc2csc(C)n2)C1",
    "U": "%",
    "Percent Effect": -1.3
  },
  {
    "COMPOUND": "Cn1cnnc1C1CCCN(C(=O)c2cc(Cl)c3c(c2)OCO3)C1 (centres undefined)",
    "U": "%",
    "Percent Effect": 5.33
  },
  {
    "COMPOUND": "O=C(CN1CCCC(c2ccc(C(=O)O)cc2)C1)NC1CC1 (centres undefined)",
    "U": "%",
    "Percent Effect": 5.41
  },
  {
    "COMPOUND": "CCCc1nc(C(=O)N2CCCn3nc(CCC(=O)O)cc3C2)cs1",
    "U": "%",
    "Percent Effect": 5.41
  },
  {
    "COMPOUND": "Cc1nc(CCNC(=O)NCc2ccc(N(C)C)nc2)cs1",
    "U": "%",
    "Percent Effect": 13.5
  }
]

Quick batch: Percent Effect for everything below.
1. O=C(Nc1ccccc1)N1CCn2nnc(COc3cccnc3)c2C1
2. Cc1ccc(C(=O)N2Cc3c(CN4CCCCC4)nn(C)c3C2)cc1C
3. Cn1nnc2c1CCN(Cc1nccs1)C2COCc1ccccc1 (centres undefined)
4. CC(C(=O)NCc1ccnc(N2CCCC2)c1)n1cncn1 (centres undefined)
5. CCOc1cc(CNC(=O)N2CCC(Cc3cnn(C)c3)C2)ccn1 (centres undefined)
6. CC(=O)N1CCCN(Cc2csc(-c3ncccn3)n2)CC1

## Result
1. 6.49
2. -1.3
3. 2.67
4. 15.8
5. -2.56
6. 13.2
